- Tested on: EGFR(L747-S752del, P753S)
- Experimental Conditions: Compound Concentration (nM):1000;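 further: KINOMEscan scanMAX binding as percent activity remaining versus control; lower means stronger binding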
Test Readout: Percent Control (%)
Just the number in %, nothing appended.

Q. Return value of Percent Control for input O=C(Nc1n[nH]c2nc(-c3ccc(O)cc3)c(Br)cc12)C1CC1 , no commentary.
A. 99

---
Q. Return value of Percent Control for input NS(=O)(=O)c1ccc(Nc2ncc(-c3ccccc3)o2)cc1 [GW572399X] , no commentary.
A. 100

Q. Return value of Percent Control for input COc1ccc(COc2ccc(Cc3cnc(N)nc3N)cc2OC)cc1 [GW632580X] , no commentary.
A. 75

Q. Return value of Percent Control for input COc1ccccc1-c1cc(/C=C2\C(=O)Nc3ncc(Br)cc32)cc(Br)c1O [GW442130X] , no commentary.
A. 88

Q. Return value of Percent Control for input CN(C)CCNC(=O)Nc1ccc(N(C)c2ccnc(Nc3ccc(CS(C)(=O)=O)cc3)n2)cc1.Cl [GW830900A] , no commentary.
A. 79

Q. Return value of Percent Control for input Cl.c1ccc(Cc2nc3ccc(Nc4ncnc5ccccc45)cc3[nH]2)cc1 [GR269666A] , no commentary.
A. 70

Q. Return value of Percent Control for input Nc1ncnc2occ(-c3ccc(NC(=O)Nc4cc(C(F)(F)F)ccc4F)cc3)c12 [GW770249X] , no commentary.
A. 93

* * *

- System: PIP5K1C
- Experimental Conditions: Compound Concentration (nM):1000
Here the recorded Percent Control is given for each entry.
Just the number in %, nothing appended.

Q. State the measured Percent Control (PIP5K1C) of CN(C)CCNC(=O)Nc1ccc(N(C)c2ccnc(Nc3ccc(CS(C)(=O)=O)cc3)n2)cc1.Cl [GW830900A]
A. 86

Q. State the measured Percent Control (PIP5K1C) of CC(C)COC(=O)c1ccc2c(c1)/C(=C/Nc1ccc(S(N)(=O)=O)cc1)C(=O)N2 [GW416981X]
A. 89

Q. State the measured Percent Control (PIP5K1C) of NS(=O)(=O)c1ccc(N/N=C2\C(=O)Nc3ccc(Cl)cc32)cc1 [GW280670X]
A. 80

Below: the item to evaluate.
Q. State the measured Percent Control (PIP5K1C) of Cl.O=S1CCN(Cc2ccc(-c3ccc4ncnc(Nc5ccc(OCc6ccccc6)c(F)c5)c4c3)o2)CC1 [GW576924A]
A. 67

* * *

Here the recorded Percent Control is given for each entry.
- Tested on: ERK1
- Construct: gene MAPK3
- Experimental Conditions: Compound Concentration (nM):1000
Just the number in %, nothing appended.

See these solved cases before continuing.
Q. Return value of Percent Control for input CN(C)CCNC(=O)Nc1ccc(N(C)c2ccnc(Nc3ccc(CS(C)(=O)=O)cc3)n2)cc1.Cl [GW830900A] , no commentary.
A. 100

Q. Return value of Percent Control for input C/C(Nc1ccc(S(N)(=O)=O)cc1)=C1/C(=O)Nc2ccccc21 [GW335962X] , no commentary.
A. 91

Q. Return value of Percent Control for input CC(C)COC(=O)c1ccc2c(c1)/C(=C/Nc1ccc(S(N)(=O)=O)cc1)C(=O)N2 [GW416981X] , no commentary.
A. 100

Q. Return value of Percent Control for input NS(=O)(=O)c1ccc(Nc2ncc(-c3ccccc3)o2)cc1 [GW572399X] , no commentary.
A. 100

---
Q. Return value of Percent Control for input COc1ccccc1-c1cc(/C=C2\C(=O)Nc3ncc(Br)cc32)cc(Br)c1O [GW442130X] , no commentary.
A. 87

Q. Return value of Percent Control for input COc1cccc(-n2ncc3c(N/N=C/c4ccncc4)ncnc32)c1 [GW784752X] , no commentary.
A. 100

* * *

- Test system: DCAMKL1
- Construct: gene DCLK1
- Experimental Conditions: Compound Concentration (nM):1000
Label 1.0 when Percent Control is strictly below 90%; otherwise label 0.0.

Q. Given the entry CN1CCN(C(=O)c2ccc(NC(=O)Nc3ccc(N(C)c4ccnc(Nc5ccc(CS(C)(=O)=O)cc5)n4)cc3)cc2)CC1.Cl [GW830263A] , would its reported Percent Control be below 90%?
A. 0.0

Q. Given the entry CN(C)c1cc2c(Nc3ccc4c(cnn4Cc4ccccc4)c3)ncnc2cn1 [GW282974X] , would its reported Percent Control be below 90%?
A. 1.0

Query compound follows.
Q. Given the entry NS(=O)(=O)c1ccc(Nc2ncc(-c3ccccc3)o2)cc1 [GW572399X] , would its reported Percent Control be below 90%?
A. 1.0

* * *

- Test system: DCAMKL3
- Construct: gene DCLK3
- Experimental Conditions: Compound Concentration (nM):1000
Test Readout: Percent Control (%)
Just the number in %, nothing appended.

See these solved cases before continuing.
Q. Return value of Percent Control for input COc1cc2ncn(-c3cc(O[C@H](C)c4ccccc4Cl)c(C(N)=O)s3)c2cc1OC [GSK237701A] , no commentary.
A. 100

Q. Return value of Percent Control for input CCn1c(-c2nonc2N)nc2c(C#CC(C)(C)O)nc(OCCNC)cc21.Cl , no commentary.
A. 66

Q. Return value of Percent Control for input CC(C)COC(=O)c1ccc2c(c1)/C(=C/Nc1ccc(S(N)(=O)=O)cc1)C(=O)N2 [GW416981X] , no commentary.
A. 4.6

Q. Return value of Percent Control for input CC1=C(C(=O)Nc2ccc3[nH]ncc3c2)C(c2ccc3ccccc3c2)CC(=O)N1 (stereo not drawn) [GSK270822A] , no commentary.
A. 94

Q. Return value of Percent Control for input COc1cc(C=NNc2ncnc3c2cnn3-c2ccccc2)ccc1O [GW513184X] , no commentary.
A. 100

Q. Return value of Percent Control for input NS(=O)(=O)c1ccc(Nc2ncc(-c3ccccc3)o2)cc1 [GW572399X] , no commentary.
A. 100

---
Q. Return value of Percent Control for input COc1ccc2[nH]c3c4[nH]c5ccc(OC)cc5c4c4c(c3c2c1)C(=O)NC4=O [GW296115X] , no commentary.
A. 19

Q. Return value of Percent Control for input CC1=C(C(=O)Nc2ccc3[nH]ncc3c2)C(c2ccc(Cl)c(Cl)c2)CC(=O)N1 (stereo not drawn) [GSK299115A] , no commentary.
A. 45

Q. Return value of Percent Control for input CN1CCN(C(=O)c2ccc(NC(=O)Nc3ccc(N(C)c4ccnc(Nc5ccc(CS(C)(=O)=O)cc5)n4)cc3)cc2)CC1.Cl [GW830263A] , no commentary.
A. 100

* * *

- Test system: PKNB(M.tuberculosis)
- Experimental Conditions: 1 µM
Test Readout: Percent Control (%)
Just the number in %, nothing appended.

See these solved cases before continuing.
Q. Return value of Percent Control for input Cc1cc(O)cc(C)c1/C=C/c1cncc(C(N)=O)c1 [GW435821X] , no commentary.
A. 99

Q. Return value of Percent Control for input NS(=O)(=O)c1ccc(Nc2ncc(-c3ccccc3)o2)cc1 [GW572399X] , no commentary.
A. 76

Q. Return value of Percent Control for input COC(=O)Nc1nc2ccc(Oc3ccc(NC(=O)Nc4cc(C(F)(F)F)ccc4F)cc3)cc2s1.Cl [GW693917A] , no commentary.
A. 70

Q. Return value of Percent Control for input COc1ccc(COc2ccc(Cc3cnc(N)nc3N)cc2OC)cc1 [GW632580X] , no commentary.
A. 69

Below: the item to evaluate.
Q. Return value of Percent Control for input Cl.O=C(Nc1ccc(Oc2ccc3[nH]c(NC(=O)c4ccccc4)nc3c2)cc1)Nc1cc(C(F)(F)F)ccc1F [GW709042A] , no commentary.
A. 88

* * *

- Test system: FLT3(R834Q)
- Experimental Conditions: Compound Concentration (nM):1000
Here the recorded Percent Control is given for each entry.
Just the number in %, nothing appended.

See these solved cases before continuing.
Q. Return value of Percent Control for input CC1=C(C(=O)Nc2ccc3[nH]ncc3c2)C(c2ccc(Cl)c(Cl)c2)CC(=O)N1 (stereo not drawn) [GSK299115A] , no commentary.
A. 93

Q. Return value of Percent Control for input COc1cc(/C=N/Nc2ncnc3[nH]ncc23)ccc1O [GW578748X] , no commentary.
A. 56

---
Q. Return value of Percent Control for input COc1ccc2c(-c3ccnc(Nc4cccc(OC(F)(F)F)c4)n3)cnn2n1 [GW810372X] , no commentary.
A. 73

* * *

Here the recorded Percent Control is given for each entry.
- Tested on: MYO3A
- Experimental Conditions: Compound Concentration (nM):1000
Just the number in %, nothing appended.

Q. Return value of Percent Control for input COc1ccc2c(-c3ccnc(Nc4cccc(OC(F)(F)F)c4)n3)cnn2n1 [GW810372X] , no commentary.
A. 100

Q. Return value of Percent Control for input COc1cc2ncn(-c3cc(O[C@H](C)c4ccccc4Cl)c(C(N)=O)s3)c2cc1OC [GSK237701A] , no commentary.
A. 100

Q. Return value of Percent Control for input CC(C)COC(=O)c1ccc2c(c1)/C(=C/Nc1ccc(S(N)(=O)=O)cc1)C(=O)N2 [GW416981X] , no commentary.
A. 100

Q. Return value of Percent Control for input CN(C)c1cc2c(Nc3ccc4c(cnn4Cc4ccccc4)c3)ncnc2cn1 [GW282974X] , no commentary.
A. 92

Q. Return value of Percent Control for input C[C@@H](Oc1cc(-n2cnc3ccc(OC4CCN(C)CC4)cc32)sc1C(N)=O)c1ccccc1Cl [GSK579289A] , no commentary.
A. 74

Q. Return value of Percent Control for input CCS(=O)(=O)c1ccc(OC)c(Nc2ncc(-c3cccc(OC)c3)o2)c1 [GW580509X] , no commentary.
A. 97

---
Q. Return value of Percent Control for input COc1cccc(-n2ncc3c(N/N=C/c4ccncc4)ncnc32)c1 [GW784752X] , no commentary.
A. 100

Q. Return value of Percent Control for input CC1=C(C(=O)Nc2ccc3[nH]ncc3c2)C(c2ccc(Cl)c(Cl)c2)CC(=O)N1 (centres unmarked) [GSK299115A] , no commentary.
A. 88
